Listed here: items and their measured melting point.

Example entries and their recorded answers appear below.
> print(dat)
                                   compound  measured.endpoint            reading
1  O=C(O)[C@H](Cc1ccc(OCCc2coc(-c3ccccc3)n2)cc1)NS(=O)(=O)Cc1ccccc1      melting point      141 to 143 °C
2  COc1ccc(COC(=O)N[C@@H](Cc2ccc(OCCc3coc(-c4ccccc4)n3)cc2)C(=O)O)cc1      melting point  132.5 to 135.5 °C
3  O=C(N[C@@H](Cc1ccc(OCCc2coc(-c3ccccc3)n2)cc1)C(=O)O)OCc1ccc(C(F)(F)F)cc1      melting point    177 to 180.5 °C
4  O=C(COc1ccccc1)N[C@@H](Cc1ccc(OCCc2coc(-c3ccccc3)n2)cc1)C(=O)O      melting point        94 to 97 °C
5  N[C@@H](Cc1ccc(OCCc2coc(-c3ccccc3)n2)cc1)C(=O)N(O)C(=O)OCc1ccccc1      melting point      198 to 199 °C

Q: Request the reported melting point associated with `N[C@@H](Cc1ccc(OCCc2coc(-c3ccccc3)n2)cc1)C(=O)O`
Result: 231 to 235 °C

Q: Request the reported melting point associated with O=C(NC(Cc1cccc(OCCc2coc(-c3ccccc3)n2)c1)C(=O)O)OCc1ccccc1 (stereo not shown)
Result: 149 to 151 °C (dec.)

---

Listed here: items and their measured melting point.

Example entries and their recorded answers appear below.
> print(dat)
                                   compound          reading
1  O=C(N[C@@H](Cc1ccc(OCCc2coc(-c3ccccc3)n2)cc1)C(=O)O)OCc1ccccc1    105 to 111 °C
2  CCCCc1ccc(COC(=O)N[C@@H](Cc2ccc(OCCc3coc(-c4ccccc4)n3)cc2)C(=O)O)cc1      86 to 89 °C
3  Cc1ccc(C(=O)N[C@@H](Cc2ccc(OCCc3coc(-c4ccccc4)n3)cc2)C(=O)O)cc1    180 to 182 °C
4  O=C(N[C@@H](Cc1ccc(OCCc2coc(-c3ccccc3)n2)cc1)C(=O)O)c1ccc(Cl)cc1    158 to 161 °C
5  O=C(NCc1ccccc1)N[C@@H](Cc1ccc(OCCc2coc(-c3ccccc3)n2)cc1)C(=O)O  196.5 to 198 °C

Q: Request the reported melting point associated with `O=C(Cc1ccccc1)N[C@@H](Cc1ccc(OCCc2coc(-c3ccccc3)n2)cc1)C(=O)O`
Result: 146 to 151 °C

Q: Request the reported melting point associated with Cc1oc(-c2ccccc2)nc1CCOc1ccc(CC(NC(=O)OCc2ccccc2)C(=O)O)cc1 (racemic)
Result: 142 to 143 °C

Q: Request the reported melting point associated with `Cc1oc(-c2ccccc2)nc1CCOc1ccc(C[C@H](NC(=O)OCc2ccccc2)C(=O)O)cc1`
Result: 75 to 95 °C

Q: Request the reported melting point associated with `O=C(N[C@@H](Cc1ccc(OCCc2coc(-c3ccccc3)n2)cc1)C(=O)[O-])OCc1ccccc1.[Na+]`
Result: 204 to 207 °C

Q: Request the reported melting point associated with O=C(N[C@@H](Cc1ccc(OCCc2cccc3ccccc23)cc1)C(=O)O)OCc1ccccc1 [Example 15, O-[2-(1-Naphthyl)ethyl]-N-CBZ-L-tyrosine]
Result: 80 to 83 °C

Q: Request the reported melting point associated with `O=C(N[C@@H](Cc1ccc(OCCc2coc(-c3ccccc3)n2)cc1)C(=O)O)OCc1ccc(Br)cc1`
Result: 173 to 176 °C

Q: Request the reported melting point associated with `O=C(N[C@@H](COCc1cccc(OCCc2coc(-c3ccccc3)n2)c1)C(=O)O)OCc1ccccc1`
Result: 55 to 57 °C

Data origin, for the record: patent US6541497B1
